Target: Receptor tyrosine-protein kinase erbB-2 (Homo sapiens) (UniProt P04626)
Sequence (P04626 whole entry, looked up): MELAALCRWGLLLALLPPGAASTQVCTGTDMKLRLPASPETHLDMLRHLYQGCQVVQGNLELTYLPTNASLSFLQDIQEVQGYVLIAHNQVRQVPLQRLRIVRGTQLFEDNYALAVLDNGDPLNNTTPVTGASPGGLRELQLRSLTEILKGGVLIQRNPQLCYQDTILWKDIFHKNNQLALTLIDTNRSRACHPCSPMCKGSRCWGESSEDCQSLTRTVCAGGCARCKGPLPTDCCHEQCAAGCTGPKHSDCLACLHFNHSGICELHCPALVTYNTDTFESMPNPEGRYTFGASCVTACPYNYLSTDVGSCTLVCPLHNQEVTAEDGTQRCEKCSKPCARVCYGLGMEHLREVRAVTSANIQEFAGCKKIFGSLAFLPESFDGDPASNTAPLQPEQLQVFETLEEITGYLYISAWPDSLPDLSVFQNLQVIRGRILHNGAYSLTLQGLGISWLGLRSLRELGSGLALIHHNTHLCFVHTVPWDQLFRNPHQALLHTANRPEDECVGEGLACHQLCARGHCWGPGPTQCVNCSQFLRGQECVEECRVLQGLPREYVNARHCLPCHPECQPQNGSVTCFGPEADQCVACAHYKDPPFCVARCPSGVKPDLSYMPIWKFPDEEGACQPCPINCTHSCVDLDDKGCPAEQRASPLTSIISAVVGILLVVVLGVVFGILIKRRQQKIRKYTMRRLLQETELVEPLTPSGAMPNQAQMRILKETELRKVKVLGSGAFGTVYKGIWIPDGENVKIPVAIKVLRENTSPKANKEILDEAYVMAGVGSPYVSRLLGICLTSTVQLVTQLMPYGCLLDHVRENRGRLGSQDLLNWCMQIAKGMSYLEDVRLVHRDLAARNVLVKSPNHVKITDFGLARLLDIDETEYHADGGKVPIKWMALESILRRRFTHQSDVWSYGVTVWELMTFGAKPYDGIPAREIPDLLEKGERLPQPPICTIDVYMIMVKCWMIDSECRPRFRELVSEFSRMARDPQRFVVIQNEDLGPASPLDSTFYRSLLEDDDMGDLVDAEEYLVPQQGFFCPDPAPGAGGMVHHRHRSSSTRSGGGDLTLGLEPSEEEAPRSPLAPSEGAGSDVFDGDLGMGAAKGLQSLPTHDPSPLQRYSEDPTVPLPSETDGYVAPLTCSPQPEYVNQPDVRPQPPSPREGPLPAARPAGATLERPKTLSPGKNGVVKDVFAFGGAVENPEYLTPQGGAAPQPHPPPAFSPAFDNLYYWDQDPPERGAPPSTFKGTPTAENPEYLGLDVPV
Assay: reducers of endogenous Her2 protein level, primary screen, SKBR3 breast tumor cells, AlphaScreen, ATP viability (AID 461);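 note: lower value means less Her2 protein in the cells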
Conditions: 18-24 h, at 10 µM
Activity calls are given as the source filed them.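 Rule for the calls: active = Her2 level under about 52% in both replicate screens, with viability over 70% of control (limit read from the data); inconclusive = Her2 under the limit in one screen only, or viability under 70%; inactive = Her2 level above the set limit.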
Lab note: assign the record to one of active, inactive

[
  {
    "Compound": "Fc1ccccc1C(c1nnnn1Cc1ccc2c(c1)OCO2)N1CCN(Cc2ccccc2)CC1 (stereo unspecified)",
    "Answer Label": "inactive"
  },
  {
    "Compound": "Cc1ccc2[nH]c(=O)c(CN(CCCN3CCOCC3)C(=O)Nc3cccc(Cl)c3)cc2c1",
    "Answer Label": "inactive"
  },
  {
    "Compound": "O=C(Nc1ccccc1N1CCN(c2ccc(F)cc2)CC1)c1ccccc1",
    "Answer Label": "inactive"
  },
  {
    "Compound": "CCOC(=O)c1c(NC(=O)c2cccs2)sc2c1CCN(C(=O)OCC)C2",
    "Answer Label": "active"
  },
  {
    "Compound": "CN1C(=O)CSc2ccc(NC(=O)N3CCN(c4ccccn4)CC3)cc21",
    "Answer Label": "inactive"
  }
]

[ask] Could you please tell me the result logged for CCOC(=O)CSc1nnc(-c2cccnc2)n1Cc1ccccc1 in this assay?
[reply] inactive

[ask] Query: recorded result category for C=CCn1c(-c2ccccc2)c[nH]c1=S in this test
[reply] inactive
